target: neutral amino acid transport system in rabbit ileum (Oryctolagus cuniculus, UniProt B4XTG9)
quantity: pKi
In simple prose, pKi is minus the logarithm base ten of a concentration in moles per litre.

Req: Item under review: CCC(O)C(N)C(=O)O (stereo not shown) [a-Amino-b-hydroxy valeric acid, a-amino-b-hydroxyvaleric acid] . Reported pKi?
Resp: 2.30
